- EXPERIMENT DESCRIPTION: Tissue distribution after single oral administration in rats
- Type: in vivo, rat
- EXPERIMENTAL CONTEXT: male, Wistar, rat, muscle, po, 100 mg/kg, muscle, 100 mg/kg PO, male Wistar rats, 24 h, individual animals; read-out: Muscle concentration
PARAMETER: concentration at 24 h (ng/mL)
Respond with the bare value in ng/mL.

Query block: State the recorded concentration at 24 h for this entry: COc1cc(Nc2ncnc(Nc3cc4c(cn3)NC(=O)C(C)(C)O4)n2)cc(OC)c1OC [MT-SYK-03]
Result block: 4.68

---

- ASSAYED TARGET: SYK (Homo sapiens)
- EXPERIMENT DESCRIPTION: SYK inhibition luminescent assay
- Assay type: biochemical
- Parameters: 6xHis; made in house; host or cells: Sf9
- EXPERIMENTAL CONTEXT: read-out: IC50, luminescent assay
PARAMETER: pIC50
Expect pIC50 as a plain number equal to -log10 of the molar concentration.

Query block: Query: pIC50; subject: COc1cc(Nc2ncnc(Nc3cc4c(cn3)NC(=O)C(C)(C)O4)n2)cc(OC)c1OC [MT-SYK-03]
Result block: 7.64

Ref: paper PMC8632988
